The reported measurements were obtained from patent US20210388087A1.

Tested on: Human CD137 ECD (human)
Sequence (chain, as listed by the source limits assumed): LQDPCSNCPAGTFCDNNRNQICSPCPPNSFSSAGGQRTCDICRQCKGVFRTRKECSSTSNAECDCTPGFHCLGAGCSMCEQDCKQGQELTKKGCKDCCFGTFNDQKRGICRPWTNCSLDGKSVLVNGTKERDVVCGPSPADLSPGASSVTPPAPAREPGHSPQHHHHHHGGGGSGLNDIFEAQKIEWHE
Test method notes: single mutant vs template dBBDu183H

>  <Binder>
H183/L072 VH N53T (antibody, name in Kabat numbering, V domains shown) VH: QVQLVESGGGLVQPGRSLRLSCAASGFTFSNAWMHWVRQAPGKGLEWVAQIKDKGTAYAAYYAPSVKGRFTISRDDSKNSIYLQMNSLKTEDTAVYYCHYVHYASASTVLPAFGVDAWGQGTTVTVSS VL: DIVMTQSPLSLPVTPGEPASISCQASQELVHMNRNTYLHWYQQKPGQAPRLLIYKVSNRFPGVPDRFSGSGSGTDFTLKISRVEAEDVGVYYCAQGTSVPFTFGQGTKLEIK

>  <fold change of affinity, fold>
0

$$$$
>  <Binder>
H183/L072 VH H35G (antibody, name in Kabat numbering, V domains shown) VH: QVQLVESGGGLVQPGRSLRLSCAASGFTFSNAWMGWVRQAPGKGLEWVAQIKDKGNAYAAYYAPSVKGRFTISRDDSKNSIYLQMNSLKTEDTAVYYCHYVHYASASTVLPAFGVDAWGQGTTVTVSS VL: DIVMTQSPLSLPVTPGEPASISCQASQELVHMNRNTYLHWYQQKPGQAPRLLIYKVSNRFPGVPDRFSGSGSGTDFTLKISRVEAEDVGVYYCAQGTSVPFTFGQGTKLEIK

>  <fold change of affinity, fold>
0

$$$$
>  <Binder>
H183/L072 VH N53L (antibody, name in Kabat numbering, V domains shown) VH: QVQLVESGGGLVQPGRSLRLSCAASGFTFSNAWMHWVRQAPGKGLEWVAQIKDKGLAYAAYYAPSVKGRFTISRDDSKNSIYLQMNSLKTEDTAVYYCHYVHYASASTVLPAFGVDAWGQGTTVTVSS VL: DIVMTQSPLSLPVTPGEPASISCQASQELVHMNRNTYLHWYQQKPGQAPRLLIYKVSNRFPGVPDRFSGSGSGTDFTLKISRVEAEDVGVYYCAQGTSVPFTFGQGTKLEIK

>  <fold change of affinity, fold>
0

$$$$
>  <Binder>
H183/L072 VH W33K (antibody, name in Kabat numbering, V domains shown) VH: QVQLVESGGGLVQPGRSLRLSCAASGFTFSNAKMHWVRQAPGKGLEWVAQIKDKGNAYAAYYAPSVKGRFTISRDDSKNSIYLQMNSLKTEDTAVYYCHYVHYASASTVLPAFGVDAWGQGTTVTVSS VL: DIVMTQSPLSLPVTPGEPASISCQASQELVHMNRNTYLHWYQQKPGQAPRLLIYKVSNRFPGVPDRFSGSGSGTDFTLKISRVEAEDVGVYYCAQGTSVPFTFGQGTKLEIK

>  <fold change of affinity, fold>
0

$$$$
>  <Binder>
H183/L072 VH W33G (antibody, name in Kabat numbering, V domains shown) VH: QVQLVESGGGLVQPGRSLRLSCAASGFTFSNAGMHWVRQAPGKGLEWVAQIKDKGNAYAAYYAPSVKGRFTISRDDSKNSIYLQMNSLKTEDTAVYYCHYVHYASASTVLPAFGVDAWGQGTTVTVSS VL: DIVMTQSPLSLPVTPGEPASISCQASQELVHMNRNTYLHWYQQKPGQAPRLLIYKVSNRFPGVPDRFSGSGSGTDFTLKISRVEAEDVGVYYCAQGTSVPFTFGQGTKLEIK

>  <fold change of affinity, fold>
0

$$$$
>  <Binder>
H183/L072 VH W33H (antibody, name in Kabat numbering, V domains shown) VH: QVQLVESGGGLVQPGRSLRLSCAASGFTFSNAHMHWVRQAPGKGLEWVAQIKDKGNAYAAYYAPSVKGRFTISRDDSKNSIYLQMNSLKTEDTAVYYCHYVHYASASTVLPAFGVDAWGQGTTVTVSS VL: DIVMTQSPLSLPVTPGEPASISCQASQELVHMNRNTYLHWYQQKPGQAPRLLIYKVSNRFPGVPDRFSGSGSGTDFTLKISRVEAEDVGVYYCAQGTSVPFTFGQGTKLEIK

>  <fold change of affinity, fold>
0

$$$$
>  <Binder>
H183/L072 VH Y55W (antibody, name in Kabat numbering, V domains shown) VH: QVQLVESGGGLVQPGRSLRLSCAASGFTFSNAWMHWVRQAPGKGLEWVAQIKDKGNAWAAYYAPSVKGRFTISRDDSKNSIYLQMNSLKTEDTAVYYCHYVHYASASTVLPAFGVDAWGQGTTVTVSS VL: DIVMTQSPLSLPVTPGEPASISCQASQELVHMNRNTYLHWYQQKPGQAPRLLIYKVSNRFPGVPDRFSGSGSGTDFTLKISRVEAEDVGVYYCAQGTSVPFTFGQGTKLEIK

>  <fold change of affinity, fold>
0

$$$$
>  <Binder>
H183/L072 VH F29S (antibody, name in Kabat numbering, V domains shown) VH: QVQLVESGGGLVQPGRSLRLSCAASGFTSSNAWMHWVRQAPGKGLEWVAQIKDKGNAYAAYYAPSVKGRFTISRDDSKNSIYLQMNSLKTEDTAVYYCHYVHYASASTVLPAFGVDAWGQGTTVTVSS VL: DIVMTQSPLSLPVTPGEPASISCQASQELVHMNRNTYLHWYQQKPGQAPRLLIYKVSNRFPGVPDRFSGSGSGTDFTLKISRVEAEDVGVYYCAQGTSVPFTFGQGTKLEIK

>  <fold change of affinity, fold>
0

$$$$
>  <Binder>
H183/L072 VH D52aI (antibody, name in Kabat numbering, V domains shown) VH: QVQLVESGGGLVQPGRSLRLSCAASGFTFSNAWMHWVRQAPGKGLEWVAQIKIKGNAYAAYYAPSVKGRFTISRDDSKNSIYLQMNSLKTEDTAVYYCHYVHYASASTVLPAFGVDAWGQGTTVTVSS VL: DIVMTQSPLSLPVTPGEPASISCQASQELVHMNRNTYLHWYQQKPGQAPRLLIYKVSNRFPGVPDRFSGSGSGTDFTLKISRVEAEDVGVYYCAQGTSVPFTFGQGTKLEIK

>  <fold change of affinity, fold>
0

$$$$
>  <Binder>
H183/L072 VH T28N (antibody, name in Kabat numbering, V domains shown) VH: QVQLVESGGGLVQPGRSLRLSCAASGFNFSNAWMHWVRQAPGKGLEWVAQIKDKGNAYAAYYAPSVKGRFTISRDDSKNSIYLQMNSLKTEDTAVYYCHYVHYASASTVLPAFGVDAWGQGTTVTVSS VL: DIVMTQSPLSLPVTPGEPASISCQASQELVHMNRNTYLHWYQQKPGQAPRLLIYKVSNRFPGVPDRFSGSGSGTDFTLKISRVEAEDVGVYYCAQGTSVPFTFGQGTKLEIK

>  <fold change of affinity, fold>
0

$$$$
